Field: thermal shift delta Tm. Provide a value for each of the molecules that follow.
- Tested on: LOC_OS06G16330-cb003
- Sequence (as listed by the source): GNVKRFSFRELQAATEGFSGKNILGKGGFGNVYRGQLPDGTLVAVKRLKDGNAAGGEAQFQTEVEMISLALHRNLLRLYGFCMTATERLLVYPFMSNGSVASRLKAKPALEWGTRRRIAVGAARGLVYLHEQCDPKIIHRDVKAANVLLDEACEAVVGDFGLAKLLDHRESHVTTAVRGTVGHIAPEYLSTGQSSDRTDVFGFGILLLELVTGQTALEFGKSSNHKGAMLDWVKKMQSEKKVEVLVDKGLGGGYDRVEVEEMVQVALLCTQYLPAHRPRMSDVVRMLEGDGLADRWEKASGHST
- method-description: thermal shift delta Tm vs DMSO control; higher = stronger stabilization (binding);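 further: purified Escherichia coli-expressed rice kinase domain construct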
- measurement-setup: 12.5 µM; protein concentration 2 µM
Numbers only, in °C.

State the recorded thermal shift delta Tm for every item in the following list.
1. CC[C@@H](N)CNc1ccnc(-c2cc(-c3cnn(C)c3)ccc2O)n1
2. Cc1ccc(-n2nc(C(C)(C)C)cc2NC(=O)NCc2cc(F)ccc2Oc2ccc3c(cnn3CCO)c2)cc1 [Pexmetinib (ARRY-614)]

[4.5, 3.89]

// each listed molecule needs a value for thermal shift delta Tm
1. CC(=O)Nc1nc(C)c(-c2ccc(Cl)c(S(=O)(=O)NCCO)c2)s1
2. COc1ccc(-c2cc3c(C)nc(N)nc3n([C@H]3CC[C@H](OCCO)CC3)c2=O)cn1
3. COc1nccc(-c2c(-c3ccc(F)cc3)ncn2C2CCC(O)CC2)n1 (stereo not given)

0.63
-0.03
0.57

====

- Tested on: LOC_OS02G07810-cb001
- method-description: thermal shift delta Tm vs DMSO control; higher = stronger stabilization (binding)
- measurement-setup: 12.5 µM; protein concentration 2 µM
Assign 1.0 to entries whose thermal shift delta Tm meets or exceeds 0.04 °C; assign 0.0 to the rest.

# example entries with known answers
>>> print(df.to_string())
                                   compound       subject_of_test  assigned_label
0  O=C1c2c(O)cc(O)cc2OC(c2ccc(O)c(O)c2)C1O (stereo not drawn) [Taxifolin (Dihydroquercetin)]  LOC_OS02G07810-cb001             1.0
1  OC1CCC(Oc2cccc3cnc(Nc4ccc5nc[nH]c5c4)nc23)CC1 (stereo not drawn)  LOC_OS02G07810-cb001             0.0
2  CC(C)(C)c1cc(NC(=O)Nc2ccc(Oc3ccnc4[nH]c(=O)cnc34)cc2F)n(-c2ccccc2)n1  LOC_OS02G07810-cb001             1.0
3  C=CC(=O)N1CCC(Oc2cc3c(Nc4ccc(Cl)c(Cl)c4F)ncnc3cc2OC)CC1 [Poziotinib (HM781-36B)]  LOC_OS02G07810-cb001             0.0
4  O=C(c1ccc(Nc2nccc(-c3cc4ccccc4s3)n2)cc1)N1CCC(N2CCCC2)CC1  LOC_OS02G07810-cb001             0.0

Item C[C@H](NC(=O)c1c(N)nn2cccnc12)c1cc2cccc(C#Cc3cnn(C)c3)c2c(=O)n1-c1ccccc1 with thermal shift delta Tm of 0.04 °C or above?
0.0

Is reported thermal shift delta Tm greater than or equal to 0.04 °C here: O=C1CCc2c(Oc3ccc4c(c3)[C@@H]3[C@H](O4)[C@H]3c3nc4cc(C(F)(F)F)ccc4[nH]3)ccnc2N1
1.0

Check the entry OCCn1cc(-c2cnc3nnn(Cc4ccc5ncccc5c4)c3n2)cn1 : does thermal shift delta Tm equal or exceed 0.04 °C?
1.0

# check: thermal shift delta Tm of Cc1ccc(Nc2cc(N[C@@H]3CCCC[C@@H]3N)nnc2C(N)=O)nc1C is greater than or equal to 0.04 °C
1.0

====

- Tested on: LOC_OS05G43570-cb004
- method-description: thermal shift delta Tm vs DMSO control; higher = stronger stabilization (binding)
- measurement-setup: 12.5 µM; protein concentration 2 µM
Exercise: for every item that follows, state its recorded thermal shift delta Tm.

Below: 5 compounds and their reported thermal shift delta Tm.
In [3]: df
Out[3]:
                                   compound            readout_name  meas_value
0  COc1cc(N2CCC(N(C)C)CC2)ccc1Nc1ncc(Cl)c(Nc2ccccc2P(C)(C)=O)n1  thermal shift delta Tm     0.32 °C
1  NC(=O)Nc1cc(-c2cccc(F)c2)sc1C(=O)N[C@H]1CCCNC1  thermal shift delta Tm     1.05 °C
2  CN1CC[C@H](c2c(O)cc(O)c3c(=O)cc(-c4ccccc4Cl)oc23)[C@H](O)C1 [Flavopiridol (Alvocidib)]  thermal shift delta Tm     0.07 °C
3  CNC(=O)c1ccc(Nc2ncc(C(F)(F)F)c(NCc3nccnc3N(C)S(C)(=O)=O)n2)cc1  thermal shift delta Tm     0.69 °C
4  NC1(c2ccc(-c3nc4ccn5c(=O)[nH]nc5c4cc3-c3ccccc3)cc2)CCC1  thermal shift delta Tm     0.14 °C

// each compound listed below needs its thermal shift delta Tm
1. COc1ccc2[nH]cc(/C=C3\C(=O)Nc4ccc(NC(=O)CCN5CCCCC5)cc43)c2c1
2. CC(C)(C)c1cc(/C=C(\C#N)C(N)=S)cc(C(C)(C)C)c1O
3. Cc1cc(Nc2cc(N3CCN(C)CC3)nc(/C=C/c3ccccc3)n2)n[nH]1 [ENMD-2076 L-(+)-Tartaric acid]
4. Nc1ccc(-c2ccc3ncc4ccc(=O)n(-c5cccc(C(F)(F)F)c5)c4c3c2)cn1
5. Nc1nccc(Oc2ccc3c(C(=O)Nc4cccc(C(F)(F)F)c4)cccc3c2)n1
6. Cn1nccc1Nc1nccc(-c2ccn([C@H](CO)c3ccc(Cl)c(F)c3)c(=O)c2)n1
7. S=C(NCc1ccc2c(c1)OCO2)N1CCN(c2ncnc3c2oc2ccccc23)CC1

0.6 °C
1.09 °C
0.7 °C
0.35 °C
0.58 °C
0.16 °C
0.49 °C

====

- Test system: LOC_OS01G51400-cb002
- method-description: thermal shift delta Tm vs DMSO control; higher = stronger stabilization (binding)
- measurement-setup: 12.5 µM; protein concentration 2 µM
Counter-ions that a name gives are not always drawn.
Decide using thermal shift delta Tm: a value greater than or equal to 0.3 °C is TRUE, a smaller one is FALSE.

Consider the worked cases shown below.
                                   compound       subject_of_test  assigned_label
0  C=CC(=O)N1CCC(Oc2cc3c(Nc4ccc(Cl)c(Cl)c4F)ncnc3cc2OC)CC1 [Poziotinib (HM781-36B)]  LOC_OS01G51400-cb002           FALSE
1  CCNc1nc(Nc2cc(F)c(C(=O)N3CCOCC3)cc2OC)ncc1C(F)(F)F  LOC_OS01G51400-cb002           FALSE
2      COc1cc2ncnc(Nc3ccc(O)c(Br)c3)c2cc1OC  LOC_OS01G51400-cb002           FALSE
3  Cc1ccc(NC(=O)c2cccc(N(C)C)c2)cc1NC(=O)c1ccc(O)cc1  LOC_OS01G51400-cb002            TRUE
4  CC#CC(=O)N1CC[C@@H](n2c(=O)n(-c3ccc(Oc4ccccc4)cc3)c3c(N)ncnc32)C1 [ONO-4059 (GS-4059) hydrochloride]  LOC_OS01G51400-cb002           FALSE

Would you say CCc1ccc(/C=C2/SC(=S)NC2=O)cc1 shows thermal shift delta Tm at minimum 0.3 °C?
TRUE

Does the compound CN1CCN(Cc2ccc(NC(=O)Nc3ccc(Oc4ccnc(N)n4)cc3)cc2C(F)(F)F)CC1 have recorded thermal shift delta Tm that is 0.3 °C or more?
FALSE

Reported thermal shift delta Tm at or above 0.3 °C? Cn1cc(-c2ccc(F)c(C(F)(F)F)c2)nc1C1CCN(c2ncnc3[nH]ncc23)CC1
FALSE

For this compound, is measured thermal shift delta Tm 0.3 °C or higher? O=C1NC(=O)[C@@H](c2cn3c4c(cccc24)CCC3)[C@@H]1c1c[nH]c2ccccc12 [Tivantinib (ARQ 197)]
FALSE

Determine whether this compound has thermal shift delta Tm no lower than 0.3 °C: CO[C@H]1CC[C@H](N2C(=O)CNc3ncc(-c4ccc(C(C)(C)O)nc4)nc32)CC1
FALSE

Entry OC1CCC(Oc2cccc3cnc(Nc4ccc5nc[nH]c5c4)nc23)CC1 (centres undefined) : is its thermal shift delta Tm no less than 0.3 °C?
TRUE

Is the recorded value of thermal shift delta Tm equal to or greater than 0.3 °C for this compound? COc1cccc(-n2c(=O)[nH]c3cc(Cl)n(-c4ccc(-c5cccc(OC)c5O)cc4)c3c2=O)c1
TRUE

# check: thermal shift delta Tm of O=C(Nc1ccc(-c2ccnc(Nc3ccc(N4CCOCC4)cc3)n2)cc1)C1CCCN1 (centres undefined) is greater than or equal to 0.3 °C
FALSE

Determine whether this compound has thermal shift delta Tm no lower than 0.3 °C: CN1CCN(c2ccc(OC(F)(F)F)c(Nc3ncc4c(n3)-c3c(c(C(N)=O)nn3CCO)CC4)c2)CC1
FALSE

Is thermal shift delta Tm at least 0.3 °C? Consider CCn1c(N)c(C(=O)NC)c(=O)c2ccc(C#CC(C)(O)COC)nc21 (centres undefined)
TRUE

hey, is thermal shift delta Tm for this one >= 0.3 °C? Oc1c(F)cc(-c2cnccc2-c2ccc(N3CCOCC3)cc2)cc1F
TRUE

Entry COc1cc(Nc2ncc(F)c(Nc3ccc4c(n3)N(COP(=O)(O)O)C(=O)C(C)(C)O4)n2)cc(OC)c1OC [Fostamatinib (R788)] : is its thermal shift delta Tm no less than 0.3 °C?
TRUE

Confirm if thermal shift delta Tm reported for the compound CCN1/C(=C/C(C)=O)Sc2ccc(OC)cc21 is 0.3 °C or above.
FALSE

Could you tell me if the measured thermal shift delta Tm of Nc1nc(N)c2nc(-c3cccc(O)c3)c(-c3cccc(O)c3)nc2n1 reaches 0.3 °C or more?
TRUE
